These entries and their values trace back to ChEMBL document CHEMBL1129525.

Observed IC50, system Bifunctional dihydrofolate reductase-thymidylate synthase (Toxoplasma gondii).
Record the value in nM, omitting the unit from your answer.

Recorded IC50, per entry:
COc1cccc(C)c1NCc1cnc2nc(N)nc(N)c2c1C 100
Nc1nc(N)c2nc(CSc3cccc4ccccc34)cnc2n1 7000
COc1ccc(OC)c(N(C)Cc2cnc3nc(N)nc(N)c3n2)c1 210
COc1cc(NCc2cnc3nc(N)nc(N)c3n2)cc(OC)c1 110

Param readout= IC50; system= Bifunctional dihydrofolate reductase-thymidylate synthase (Toxoplasma gondii); entry= COc1ccc(OC)c(NCc2ccc3nc(N)nc(N)c3c2)c1 ; returns value.
140

Try this compound too: COc1ccc(OC)c(NCc2cnc3nc(N)nc(N)c3n2)c1
6900

Another: Cc1c(CNc2cccc3c2CCCC3)cnc2nc(N)nc(N)c12
26

Another compound to check: Nc1nc(N)c2cc(CNc3ccc(Cl)cc3)cnc2n1
300

Another compound: Cc1c(CSc2cccc(Cl)c2)cnc2nc(N)nc(N)c12
90

###

Test system: Toxoplasma gondii
Experiment: Inhibition of Toxoplasma gondii cell growth
Format: functional, organism-based
In plain terms, low IC50, meaning strictly below 60 nM, gives t, and everything else gives f.

Answered cases to consult:
compound	targetOrTestSystem	classAssignment
COc1ccc(OC)c(NCc2cnc3nc(N)nc(N)c3n2)c1	Toxoplasma gondii	f
Cc1ccc(C)c(NCc2cnc3nc(N)nc(N)c3c2C)c1	Toxoplasma gondii	t
Cc1ccc(SCc2cnc3nc(N)nc(N)c3c2C)cc1	Toxoplasma gondii	f
Cc1c(CSc2cccc(Cl)c2)cnc2nc(N)nc(N)c12	Toxoplasma gondii	f
COc1ccc(OC)c(Cc2cnc3nc(N)nc(N)c3c2C)c1 [PIRITREXIM]	Toxoplasma gondii	t
COc1ccc(C(F)(F)F)cc1NCc1cnc2nc(N)nc(N)c2n1	Toxoplasma gondii	f

A record lists Nc1nc(N)c2cc(CNc3cccc4ccccc34)cnc2n1 . Is its IC50 below 60 nM?
f

Now this one: Cc1c(CNc2ccc(Cl)cc2)cnc2nc(N)nc(N)c12
f

Moving on to the next compound: COc1cc(OC)cc(N(C)Cc2cnc3nc(N)nc(N)c3c2C)c1
t

Again, but for COc1cccc(SCc2cnc3nc(N)nc(N)c3n2)c1
f

Moving on to COc1ccc(OC)c(NCc2ccc3nc(N)nc(N)c3c2)c1
f

###

Biological target: Bifunctional dihydrofolate reductase-thymidylate synthase (Toxoplasma gondii)
Sequence (Q07422 whole entry): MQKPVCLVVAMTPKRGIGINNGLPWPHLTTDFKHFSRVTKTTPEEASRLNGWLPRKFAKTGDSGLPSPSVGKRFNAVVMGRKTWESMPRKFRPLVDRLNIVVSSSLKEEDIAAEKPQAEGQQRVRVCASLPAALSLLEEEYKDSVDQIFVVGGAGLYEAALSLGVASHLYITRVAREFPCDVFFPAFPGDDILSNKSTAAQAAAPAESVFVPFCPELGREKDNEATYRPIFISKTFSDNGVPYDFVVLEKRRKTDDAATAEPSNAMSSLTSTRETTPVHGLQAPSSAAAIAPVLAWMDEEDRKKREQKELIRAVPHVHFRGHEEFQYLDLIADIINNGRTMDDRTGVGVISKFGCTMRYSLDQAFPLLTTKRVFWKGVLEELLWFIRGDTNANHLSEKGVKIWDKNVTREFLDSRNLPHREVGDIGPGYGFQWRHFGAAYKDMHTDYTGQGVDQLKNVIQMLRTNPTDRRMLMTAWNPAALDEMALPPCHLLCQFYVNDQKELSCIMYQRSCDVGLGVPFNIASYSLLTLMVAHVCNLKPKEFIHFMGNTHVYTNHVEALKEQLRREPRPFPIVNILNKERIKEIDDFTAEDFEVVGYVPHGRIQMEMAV
observationType: pIC50
// returns pIC50 (minus log10 of molar concentration), number only

Study these solved cases before continuing.
COc1ccc(C(F)(F)F)cc1NCc1cnc2nc(N)nc(N)c2c1C 7.66
Nc1nc(N)c2nc(CNc3cccc4ccccc34)cnc2n1 7.12
COc1cc(NCc2cnc3nc(N)nc(N)c3n2)cc(OC)c1OC 6.00
COc1ccc(C)c(NCc2cnc3nc(N)nc(N)c3c2C)c1 7.64
COc1cc(NCc2cnc3nc(N)nc(N)c3n2)cc(C(F)(F)F)c1 6.05

Now turn to the next compound.
Record lookup: for Bifunctional dihydrofolate reductase-thymidylate synthase (Toxoplasma gondii), what pIC50 belongs to COc1ccc(NCc2cnc3nc(N)nc(N)c3c2C)c(C)c1 ?
8.14
